All figures here come from the supplement of paper PMC10065799.

# Study system: Hck (UniProt P08631)
# Sequence (P08631 whole entry, looked up): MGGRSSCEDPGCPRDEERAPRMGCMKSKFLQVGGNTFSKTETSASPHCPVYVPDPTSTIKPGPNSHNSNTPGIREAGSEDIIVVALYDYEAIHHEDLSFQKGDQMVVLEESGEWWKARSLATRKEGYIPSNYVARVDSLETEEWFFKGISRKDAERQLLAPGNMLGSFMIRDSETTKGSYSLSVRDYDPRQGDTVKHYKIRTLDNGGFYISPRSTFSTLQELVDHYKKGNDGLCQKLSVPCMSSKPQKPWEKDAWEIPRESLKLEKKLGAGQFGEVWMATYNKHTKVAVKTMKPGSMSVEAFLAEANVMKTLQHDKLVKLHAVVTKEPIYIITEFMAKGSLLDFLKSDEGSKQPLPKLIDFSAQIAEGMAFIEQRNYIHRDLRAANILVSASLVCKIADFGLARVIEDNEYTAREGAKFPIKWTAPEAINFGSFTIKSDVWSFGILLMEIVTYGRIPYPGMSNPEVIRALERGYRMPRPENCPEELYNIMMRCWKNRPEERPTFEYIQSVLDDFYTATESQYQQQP
# Assay info: phosphorylation enrichment, bacterial display (enrichment ratio); higher = better substrate or ligand; peptides without Tyr show the background;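 further: 11-residue human phosphosite peptides and single-mutation variants displayed on the E. coli surface, counted by deep sequencing, each peptide's frequency after selection divided by its frequency in the unselected input library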;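 further: frequency after pTyr selection over input frequency; kinase dosed for 20-30% of maximal phosphorylation in three min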
# phosphorylation enrichment binned as bottom range = under 0.5, center range = from 0.5 up to 0.7, top range = 0.7 and over

Study these solved cases before continuing.
{"Entry sequence": "SHLSAFPALEG [CD5_Y465_Y465F]", "Answer label": "bottom range"}
{"Entry sequence": "EWLRRYLKNGK [HLA-C_Y195_E197K]", "Answer label": "center range"}
{"Entry sequence": "WNDPDYMDSRR [GAA_Y407_L405P]", "Answer label": "bottom range"}
{"Entry sequence": "GSSEGYLHMVH [NIPBL_Y247_D246G]", "Answer label": "bottom range"}
{"Entry sequence": "WDLSEYSFKDP [ITGA3_Y237_YF]", "Answer label": "top range"}

input: For RGRKVYLEDGF [PRIM2_Y201] , which phosphorylation enrichment bin applies?
output: top range

input: For WIPIQDPIISE [NOG_Y222_Y222D] , which phosphorylation enrichment bin applies?
output: center range

###

# Study system: FGFR1 (UniProt P11362)
# Sequence (P11362 whole entry, looked up): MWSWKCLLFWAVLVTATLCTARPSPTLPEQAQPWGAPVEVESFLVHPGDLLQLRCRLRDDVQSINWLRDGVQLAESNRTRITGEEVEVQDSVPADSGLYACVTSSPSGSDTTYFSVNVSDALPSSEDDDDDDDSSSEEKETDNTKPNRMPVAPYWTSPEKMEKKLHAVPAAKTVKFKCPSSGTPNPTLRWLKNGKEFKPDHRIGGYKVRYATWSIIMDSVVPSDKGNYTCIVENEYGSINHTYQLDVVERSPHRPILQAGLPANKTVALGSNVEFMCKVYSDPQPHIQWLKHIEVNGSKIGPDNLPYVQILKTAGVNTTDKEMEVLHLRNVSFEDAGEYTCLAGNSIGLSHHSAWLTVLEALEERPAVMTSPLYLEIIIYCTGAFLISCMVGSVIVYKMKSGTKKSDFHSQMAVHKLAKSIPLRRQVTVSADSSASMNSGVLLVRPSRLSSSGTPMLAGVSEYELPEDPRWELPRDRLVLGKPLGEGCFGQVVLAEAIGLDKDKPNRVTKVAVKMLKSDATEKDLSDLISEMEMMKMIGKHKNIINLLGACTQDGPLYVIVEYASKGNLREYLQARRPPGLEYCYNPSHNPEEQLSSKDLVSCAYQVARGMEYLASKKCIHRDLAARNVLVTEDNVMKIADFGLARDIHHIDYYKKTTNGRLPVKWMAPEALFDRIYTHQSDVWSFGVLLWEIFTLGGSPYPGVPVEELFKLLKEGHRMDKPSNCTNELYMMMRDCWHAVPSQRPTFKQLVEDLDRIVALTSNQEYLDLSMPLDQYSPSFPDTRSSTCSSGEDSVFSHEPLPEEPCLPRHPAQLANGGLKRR
# Assay info: phosphorylation enrichment, bacterial display (enrichment ratio); higher = better substrate or ligand; peptides without Tyr show the background
Can you tell me phosphorylation enrichment for the items I'm about to list?
Numbers only.

These solved cases illustrate the format of a correct answer.
{"Entry sequence": "QKTGDYYDLYG [PTPN11_Y62_N58K]", "Observed result": 20.8}
{"Entry sequence": "RGMVMYTSKDR [ZG16B_Y136]", "Observed result": 0.523}
{"Entry sequence": "QYQLKYSETPF [SIX6OS1_Y129]", "Observed result": 0.598}

Report phosphorylation enrichment for each item below.
1. MACDRYVAICS [OR8D4_Y123]
2. FKPGFYNLKEK [LAMA1_Y490_C485Y_YF]
3. HFEFKYVINAI [MAOA_Y268_C266F_YF]
4. CTNPQYLAAGS [RABL3_Y185_R184Q]
5. DGTVHYVDEKG [IFT140_Y216]

output:
1: 0.623; 2: 0.513; 3: 0.391; 4: 0.465; 5: 0.592

###

# Study system: FGFR3 (UniProt P22607)
# Sequence (P22607 whole entry, looked up): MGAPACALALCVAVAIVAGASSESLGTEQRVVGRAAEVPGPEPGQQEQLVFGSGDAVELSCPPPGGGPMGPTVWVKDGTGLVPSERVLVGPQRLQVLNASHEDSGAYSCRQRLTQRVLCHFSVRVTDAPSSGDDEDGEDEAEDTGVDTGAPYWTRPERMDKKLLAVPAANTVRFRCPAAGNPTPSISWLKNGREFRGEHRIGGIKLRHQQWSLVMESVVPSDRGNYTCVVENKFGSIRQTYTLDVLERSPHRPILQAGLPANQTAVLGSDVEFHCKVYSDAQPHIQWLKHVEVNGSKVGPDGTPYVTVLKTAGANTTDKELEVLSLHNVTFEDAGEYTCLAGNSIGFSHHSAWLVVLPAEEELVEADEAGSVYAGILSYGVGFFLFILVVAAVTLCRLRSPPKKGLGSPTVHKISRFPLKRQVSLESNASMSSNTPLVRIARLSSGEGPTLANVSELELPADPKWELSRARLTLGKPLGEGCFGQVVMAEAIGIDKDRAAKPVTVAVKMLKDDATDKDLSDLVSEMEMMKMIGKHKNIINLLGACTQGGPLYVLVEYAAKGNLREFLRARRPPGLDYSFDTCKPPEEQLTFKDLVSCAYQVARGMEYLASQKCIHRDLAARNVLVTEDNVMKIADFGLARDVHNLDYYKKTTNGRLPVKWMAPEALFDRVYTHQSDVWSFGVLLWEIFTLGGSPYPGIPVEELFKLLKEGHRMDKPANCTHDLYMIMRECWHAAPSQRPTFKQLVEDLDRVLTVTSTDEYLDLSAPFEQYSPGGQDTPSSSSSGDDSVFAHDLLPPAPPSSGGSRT
# Assay info: phosphorylation enrichment, bacterial display (enrichment ratio); higher = better substrate or ligand; peptides without Tyr show the background
// label = rule met if phosphorylation enrichment is not less than 0.8, otherwise rule not met

{"Entry sequence": "LKEIRYPPYTD [ALDH3B2_Y362_H361R]", "Answer label": "rule not met"}
{"Entry sequence": "FLQEIYNSNNQ [FGG_Y140_YF]", "Answer label": "rule met"}
{"Entry sequence": "LQIPMYEVQWK [KIT_Y553_K550I]", "Answer label": "rule met"}
{"Entry sequence": "QLATEYVFSDF [PANX1_Y10]", "Answer label": "rule met"}
{"Entry sequence": "IVTLKYPIEHG [ACTB_Y69_L65V]", "Answer label": "rule not met"}

# ---- query sequence ----
input: Is it the case that EFGFRYELVQF [UGGT2_Y1289_Y1285F_YF] has phosphorylation enrichment reaching or exceeding 0.8?
output: rule met

###

# Study system: EPHB2 (UniProt P29323)
# Sequence (P29323 whole entry, looked up): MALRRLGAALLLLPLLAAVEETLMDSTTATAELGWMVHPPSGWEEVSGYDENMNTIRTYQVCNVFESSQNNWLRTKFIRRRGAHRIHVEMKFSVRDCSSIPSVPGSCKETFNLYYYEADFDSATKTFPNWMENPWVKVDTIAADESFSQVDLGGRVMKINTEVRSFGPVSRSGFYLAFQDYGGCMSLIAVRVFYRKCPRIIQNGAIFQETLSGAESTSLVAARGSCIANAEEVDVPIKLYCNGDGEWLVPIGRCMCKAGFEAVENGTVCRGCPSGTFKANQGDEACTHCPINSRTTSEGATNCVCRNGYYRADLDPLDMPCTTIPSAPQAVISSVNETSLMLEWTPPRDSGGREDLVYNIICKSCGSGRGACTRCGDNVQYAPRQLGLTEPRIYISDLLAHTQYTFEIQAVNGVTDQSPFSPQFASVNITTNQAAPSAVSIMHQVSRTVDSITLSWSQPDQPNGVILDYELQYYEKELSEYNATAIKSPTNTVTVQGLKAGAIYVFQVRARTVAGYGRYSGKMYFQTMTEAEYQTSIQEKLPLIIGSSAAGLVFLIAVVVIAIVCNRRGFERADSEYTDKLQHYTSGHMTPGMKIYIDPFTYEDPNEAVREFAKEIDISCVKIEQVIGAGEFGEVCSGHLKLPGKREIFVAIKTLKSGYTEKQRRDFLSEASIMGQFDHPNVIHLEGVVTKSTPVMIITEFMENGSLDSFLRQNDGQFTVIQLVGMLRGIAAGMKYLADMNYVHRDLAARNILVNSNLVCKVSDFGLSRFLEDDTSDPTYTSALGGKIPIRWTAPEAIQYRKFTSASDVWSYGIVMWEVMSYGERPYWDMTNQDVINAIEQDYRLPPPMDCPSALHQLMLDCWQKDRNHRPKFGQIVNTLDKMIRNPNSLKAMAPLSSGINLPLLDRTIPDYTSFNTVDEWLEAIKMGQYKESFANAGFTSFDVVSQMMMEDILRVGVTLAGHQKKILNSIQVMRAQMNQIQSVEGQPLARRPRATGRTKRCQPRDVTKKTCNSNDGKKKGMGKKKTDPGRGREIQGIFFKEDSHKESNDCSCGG
# Assay info: phosphorylation enrichment, bacterial display (enrichment ratio); higher = better substrate or ligand; peptides without Tyr show the background
Can you tell me phosphorylation enrichment for the items I'm about to list?
One number for each entry.

These solved cases illustrate the format of a correct answer.
{"Entry sequence": "GQSKGYRPKLY [SIPA1L3_Y1376]", "Study system": "EPHB2 (UniProt P29323)", "phosphorylation enrichment": 0.393}
{"Entry sequence": "ALAQKYHGGGG [HBB_Y146_H144Q]", "Study system": "EPHB2 (UniProt P29323)", "phosphorylation enrichment": 0.366}
{"Entry sequence": "TLQNMYGCDVG [HLA-B_Y123_S121N]", "Study system": "EPHB2 (UniProt P29323)", "phosphorylation enrichment": 0.581}
{"Entry sequence": "VDTGVYAVPPP [BCAR1_Y410_S407T]", "Study system": "EPHB2 (UniProt P29323)", "phosphorylation enrichment": 20.2}
{"Entry sequence": "VDSNPYSHLMA [UBA5_Y53_R55H]", "Study system": "EPHB2 (UniProt P29323)", "phosphorylation enrichment": 0.481}

Report phosphorylation enrichment for each item below.
1. PVGDVYKKKGL [NMNAT1_Y55_A54V]
2. RAYRRYLLKQK [SCN2A_Y1919]
3. KVVNEYVTKGQ [MYH7_Y410_G407V]
4. RLLVVYPWTQG [HBG2_Y36_R41G]
5. SGFESYGSSSS [RPA2_Y9_Y14S]

output:
1: 0.567; 2: 0.468; 3: 0.451; 4: 0.378; 5: 0.617

Report phosphorylation enrichment for each item below.
1. EVEPTYVVLFD [ERCC4_Y577_R576T_YF]
2. SVTCTYCPALN [TP53_Y126_S127C]
3. PRPAGYPSTVS [CACNA1C_Y1832]
4. IDFARYWHGDD [MMP11_Y162]
5. TPTYPYLLPKS [PLD2_Y580]
6. RIVEIYSRRLQ [GCH1_Y175]

output:
14.1
0.413
0.413
0.504
0.349
0.92
